Data provenance: patent US20090030024A1

- method_description: logP determination by retention times (calibration with alkan-2-ones)
test_readout: chromatographic logP
Lab note: record the figure alone, no unit after it.

COc1cc(Nc2nccc(-c3sc(SC)nc3C)n2)cc(OC)c1OC	2.76
Cc1nc(C2CC2)sc1-c1ccnc(Nc2ccc(O)cc2)n1	2.01
Cc1nc(NCC2CCCO2)sc1-c1ccnc(Nc2ccccc2)n1 (centres unmarked)	1.87
CC(=O)c1cccc(Nc2nccc(-c3sc(C4CCCCC4)nc3C)n2)c1	4.11

Proceeding to the next compound to report its chromatographic logP.
Requested read-out: chromatographic logP. Entry: CSc1nc(C)c(-c2ccnc(Nc3cccc(C(C)=O)c3)n2)s1 2.99
